Every entry's value here was drawn from patent US20220267258A1.

# System: Plasmodium yoelii
# measurementProtocol: modified 4-day Peters test, murine malaria
# Assay type: in vivo, mice
# testContext: oral, doses up to 25 mg/kg/day, no parasites at day 30
# Procedure: In this modified 4-day Peters test,^41 mice were inoculated with parasites from a donor mouse (day 0), and then dosed orally with drugs on each of the subsequent four days (days 1-4). On day 5 of the experiment, the parasitemia for each mouse was determined microscopically by examining methanol-fixed and Giemsa-stained blood smears. […] The in vivo ED50 and ED90 of selected aminoguanidines was measured using a modified 4-day Peters test. […]
Listed below: P. yoelii NRD (non-recrudescence dose, cure dose) values for each entry.

Q: // fetch P. yoelii NRD (non-recrudescence dose, cure dose) given entry N#Cc1cc(/C=N/NC(=N)N/N=C/c2ccc(F)c(C#N)c2)ccc1F [Compound 1]
Result: >25 mg/kg/day

Q: Determine its reported P. yoelii NRD (non-recrudescence dose, cure dose): N=C(N/N=C/c1ccc(Cl)cc1)N/N=C/c1ccc(Cl)cc1 [Robenidine]
Result: >25 mg/kg/day

Q: Specify reported P. yoelii NRD (non-recrudescence dose, cure dose) for the compound shown: N=C(N/N=C/c1ccc(OC(F)(F)F)cc1)N/N=C/c1ccc(OC(F)(F)F)cc1 [Compound 16]
Result: 12.5 mg/kg/day

Turning to the following compound.
Q: Consider the compound N#Cc1cccc(/C=N/NC(=N)N/N=C/c2cccc(C#N)c2)c1 [Compound 21] and give its recorded P. yoelii NRD (non-recrudescence dose, cure dose).
Result: >25 mg/kg/day

---

# Test system: human hepatoma derived HepG2 cells
# measurementProtocol: HepG2 cytotoxicity assay (resazurin)
# Format: cell-based
# testContext: HepG2, 24 hr drug, 24 hr recovery
Below, each entry is listed alongside its reported IC50.
// note: answer is a bare numeric in µM

Here is how some molecules turned out for IC50.
Q: For O=C1C(O)=C([C@H]2CC[C@H](c3ccc(Cl)cc3)CC2)C(=O)c2ccccc21 [Atovaquone, reference compound] , write its IC50.
Result: 72

Q: Respond only with IC50 recorded for CCN(CC)CCCC(C)Nc1ccnc2cc(Cl)ccc12 (stereo not shown) [Chloroquine, reference compound]
Result: 181

Kindly review the next molecule as well.
Q: Could you please provide reported IC50 for N=C(N/N=C/c1ccc(Cl)cc1)N/N=C/c1ccc(Cl)cc1 ? Thanks!
Result: 30

---

Quick list: pIC50 per entry.
# Test system: P. falciparum A6
# measurementProtocol: SYBR Green growth inhibition assay, P. falciparum A6
# Type: cell-based, Plasmodium falciparum
# testContext: Plasmodium falciparum, 72 h, read-out: IC50 A6
Formally, pIC50 is defined as -log10 of the concentration c, with c in mol/L.

Look over these answered cases.
Q: Please report the measured pIC50 for N=C(N/N=C/c1cccc(OC(F)(F)F)c1)N/N=C/c1cccc(OC(F)(F)F)c1
Result: 6.16

Q: Complete the entry with pIC50 for N=C(N/N=C/c1ccc(Br)cc1)N/N=C/c1ccc(Br)cc1
Result: 6.57

Q: Identify pIC50 associated with the compound N=C(N/N=C/c1ccccc1OC(F)(F)F)N/N=C/c1ccccc1OC(F)(F)F
Result: 6.41

---
Q: Assign pIC50 to the following record: N=C(N/N=C/c1ccc(OC(F)F)cc1)N/N=C/c1ccc(OC(F)F)cc1
Result: 7.06

Q: Retrieve pIC50 measured for N=C(N/N=C/c1ccccc1)N/N=C/c1ccccc1 and print it.
Result: 6.24

Q: Respond only with pIC50 recorded for CN(C)c1ccc(/C=N/NC(=N)N/N=C/c2ccc(N(C)C)cc2)cc1
Result: 6.91

Q: Kindly indicate its recorded pIC50. Item: N=C(N/N=C/c1ccc(N2CCOCC2)cc1)N/N=C/c1ccc(N2CCOCC2)cc1
Result: 6.94

Q: Determine its reported pIC50: N=C(N/N=C/c1cccc(Cl)c1)N/N=C/c1cccc(Cl)c1
Result: 6.63

Q: Give the reported pIC50 for this compound. N#Cc1cccc(/C=N/NC(=N)N/N=C/c2cccc(C#N)c2)c1
Result: 7.62

Q: Identify measured pIC50 corresponding to N=C(N/N=C/c1ccc(OC(F)(F)F)cc1)N/N=C/c1ccc(OC(F)(F)F)cc1
Result: 7.28

---

# System: P. falciparum A6
# measurementProtocol: SYBR Green growth inhibition assay, P. falciparum A6
# Type: cell-based, Plasmodium falciparum
# testContext: Plasmodium falciparum, 72 h, read-out: IC50 A6
Each item that follows carries a reported IC50.
Please respond with the number in nM and leave the unit unwritten.

// worked examples, IC50 included
Q: Give IC50 for the following compound: COc1ccc(/C=N/NC(=N)N/N=C/c2ccc(OC)cc2)cc1
Result: 289

Q: Please look at this compound and report its IC50: N=C(N/N=C/c1ccc(F)cc1)N/N=C/c1ccc(F)cc1
Result: 369

Q: Report IC50, nothing else, for this compound: N=C(N/N=C/c1ccccc1Br)N/N=C/c1ccccc1Br
Result: 876

// next item, IC50 requested
Q: Note down IC50 recorded for N=C(N/N=C/c1cccc(F)c1)N/N=C/c1cccc(F)c1
Result: 426

---

# Test system: P. falciparum Tm90-C2B
# measurementProtocol: SYBR Green growth inhibition assay, P. falciparum Tm90-C2B
# Format: cell-based, Plasmodium falciparum
# testContext: multi-drug resistant clinical isolate, also atovaquone resistant, 72 hr; read-out: IC50 Tm90-C2B
# Experimental: In addition to the drug-sensitive P. falciparum D6 strain, the aminoguanidines were assessed against three drug-resistant strains (Tables 1-3). The following parasite strains were used in this study and obtained through BEI Resources, NIAID, NIH. […]
Structures can show the parent of a compound that is named as a salt.
endpointLabel: IC50 (µM)
Respond numerically; units are µM and should not be typed.

Q: Read off the recorded IC50 for N=C(N/N=C/c1ccc(Cl)cc1)N/N=C/c1ccc(Cl)cc1 [Robenidine]
Result: 1.32

Q: Input N=C(NN=Cc1ccc2c(c1)OC(F)(F)O2)NN=Cc1ccc2c(c1)OC(F)(F)O2 [Compound 36, Hydrochloride] , output reported IC50.
Result: 0.905

Please examine the following record next.
Q: State its IC50: N=C(NN=Cc1ccc([N+](=O)[O-])cc1)NN=Cc1ccc([N+](=O)[O-])cc1 [Compound 27]
Result: 0.247

---

# measurementProtocol: HepG2 cytotoxicity assay (resazurin)
# Format: cell-based, human
# testContext: human, HepG2 cells; HepG2, 24 hr drug, 24 hr recovery
Sorting guide: entries reporting IC50 at 24 h beneath 50 µM go in the met pile, the rest go in the not met pile.

Please review the entries below; each comes with its answer.
Q: State whether 50 µM exceeds IC50 at 24 h recorded for CC#COc1ccc(/C=N/NC(=N)N/N=C/c2ccc(OC#CC)cc2)cc1 [Compound 32] .
Result: not met

Q: Item N=C(N/N=C/c1ccc(-c2ccccc2)cc1)N/N=C/c1ccc(-c2ccccc2)cc1 [Compound 26] : IC50 at 24 h beneath 50 µM, strictly?
Result: not met

Q: Dear colleague, could you confirm whether IC50 at 24 h of N=C(N/N=C/c1ccccc1Br)N/N=C/c1ccccc1Br [Compound 7] falls below 50 µM? Thanks.
Result: not met

Others:
Q: Determine if N=C(N/N=C/c1ccc(OC(F)(F)F)cc1)N/N=C/c1ccc(OC(F)(F)F)cc1 [Compound 16] shows IC50 at 24 h strictly lower than 50 µM.
Result: met

Q: Lab log: compare recorded IC50 at 24 h with 50 µM; is it strictly lower for N=C(N/N=C/c1ccc(C(F)(F)F)cc1)N/N=C/c1ccc(C(F)(F)F)cc1 [Compound 12] ?
Result: met

Q: Threshold test, IC50 at 24 h < 50 µM: N=C(N/N=C/c1cccc(OC(F)(F)F)c1)N/N=C/c1cccc(OC(F)(F)F)c1 [Compound 15]
Result: not met

Q: is_below(IC50 at 24 h, 50 µM) for N=C(N/N=C/c1ccc(OC(F)F)cc1)N/N=C/c1ccc(OC(F)F)cc1 [Compound 18] ?
Result: met

Q: Answer whether the compound N=C(N/N=C/c1cccc(-n2cnnn2)c1)N/N=C/c1cccc(-n2cnnn2)c1 [Compound 34] has IC50 at 24 h strictly less than 50 µM
Result: not met

Q: Below 50 µM on IC50 at 24 h? Entry CN(C)c1ccc(/C=N/NC(=N)N/N=C/c2ccc(N(C)C)cc2)cc1 [Compound 28]
Result: met

Q: IC50 at 24 h strictly < 50 µM for this compound? N=C(N/N=C/c1ccccc1F)N/N=C/c1ccccc1F [Compound 2]
Result: not met

Q: I wonder whether N=C(N/N=C/c1cccc(Cl)c1)N/N=C/c1cccc(Cl)c1 [Compound 6] has IC50 at 24 h below 50 µM. Can you tell?
Result: met

Q: Criterion: IC50 at 24 h strictly below 50 µM. Is it met by N=C(N/N=C/c1ccccc1OC(F)(F)F)N/N=C/c1ccccc1OC(F)(F)F [Compound 14] ?
Result: not met

Q: IC50 at 24 h under 50 µM? Item: N=C(N/N=C/c1ccccc1)N/N=C/c1ccccc1F [Compound 38]
Result: not met

Q: In plain terms, does N=C(N/N=C/c1ccc(Br)cc1)N/N=C/c1ccc(Br)cc1 [Compound 9] come in under 50 µM for IC50 at 24 h?
Result: met

Q: Determine if N=C(N/N=C/c1ccc(F)cc1)N/N=C/c1ccc(F)cc1 [Compound 4] shows IC50 at 24 h strictly lower than 50 µM.
Result: met

Q: Check if IC50 at 24 h falls below 50 µM for N=C(N/N=C/c1ccc(O)cc1)N/N=C/c1ccc(O)cc1 [Compound 25] .
Result: met

Q: A record lists N=C(N/N=C/c1ccc(-n2cnnn2)cc1)N/N=C/c1ccc(-n2cnnn2)cc1 [Compound 35] . Is its IC50 at 24 h below 50 µM?
Result: not met
